- Tested on: human hNET (Homo sapiens)
- Construct: expressed in transfected cells; host or cells: MDCK-Net6 (MDCK cells stably transfected with hNET)
- Sequence (P23975 whole entry): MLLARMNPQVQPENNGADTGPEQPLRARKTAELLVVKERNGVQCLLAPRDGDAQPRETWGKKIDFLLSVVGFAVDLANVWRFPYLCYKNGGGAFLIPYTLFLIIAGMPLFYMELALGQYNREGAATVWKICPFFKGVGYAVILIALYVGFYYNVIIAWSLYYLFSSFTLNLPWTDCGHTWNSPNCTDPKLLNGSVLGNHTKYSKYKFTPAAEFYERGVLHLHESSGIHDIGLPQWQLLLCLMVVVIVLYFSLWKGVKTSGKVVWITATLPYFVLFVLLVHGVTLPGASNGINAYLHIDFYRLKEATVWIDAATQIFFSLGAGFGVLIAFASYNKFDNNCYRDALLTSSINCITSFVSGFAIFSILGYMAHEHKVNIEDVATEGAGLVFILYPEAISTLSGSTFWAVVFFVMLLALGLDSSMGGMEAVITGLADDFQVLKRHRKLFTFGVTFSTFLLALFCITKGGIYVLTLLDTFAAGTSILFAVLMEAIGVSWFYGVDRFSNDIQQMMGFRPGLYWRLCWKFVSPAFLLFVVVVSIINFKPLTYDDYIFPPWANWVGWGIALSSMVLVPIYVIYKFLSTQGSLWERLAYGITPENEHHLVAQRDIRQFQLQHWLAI
- Assay info: Functional norepinephrine reuptake assay, Procedure B (6,000 cells/well)
- Assay type: cell-based
- Measurement parameters: MDCK-Net6 cells, 6,000 cells/well, 16 nM 3H-norepinephrine; read-out: Procedure B hNET uptake IC50
Counter-ions that a name gives are not always drawn.
Metric name: IC50 (nM)

{"Compound": "CNCCCC1Sc2ccccc2N(c2ccc(Cl)cc2)S1(=O)=O (centres unmarked) [Example 67, Hydrochloride]", "IC50, nM": 1500}

(1) CNCCC[C@@H]1Cc2cc(F)ccc2N(c2ccc(C)cc2F)S1(=O)=O (single isomer, unassigned)
(2) CNCCCC1Oc2ccccc2N(c2ccc(F)cc2)S1(=O)=O (centres unmarked)
(3) O=S1(=O)C(CCCNC2CC2)Oc2ccccc2N1c1ccccc1 (centres unmarked)
(4) CNCCC[C@@H]1Cc2cc(F)ccc2N(c2ccccc2C)S1(=O)=O (single isomer, unassigned)
Sort the compounds on IC50; start with the lowest figure. Provide the ranking by listing each label in its place in the requested order. 1, 4, 2, 3
(1: 16 nM, 4: 135 nM, 2: 492 nM, 3: 1080 nM)

---

- Tested on: human hNET (Homo sapiens)
- Construct: expressed in transfected cells; host or cells: MDCK-Net6 (MDCK cells stably transfected with hNET)
- Assay info: Functional norepinephrine reuptake assay, Procedure B (6,000 cells/well)
- Type: cell-based
- Measurement parameters: MDCK-Net6 cells, 6,000 cells/well; Conc 6000 nM (6 μM); read-out: Procedure B hNET uptake (% inhibition)
Where a name gives a salt, the structure may show the parent alone.
Metric name: inhibition at 6 µM (%)

Below are worked cases with known answers.
{"Molecule": "CNCCCC1Oc2ccccc2N(c2cnc3ccccc3c2)S1(=O)=O (stereo not drawn)", "inhibition at 6 µM, %": 41}
{"Molecule": "CN1CCN(CCC2Oc3ccccc3N(c3ccccc3)S2(=O)=O)CC1 (stereo not drawn)", "inhibition at 6 µM, %": 35}

(1) CC(C)CNCCCC1Oc2ccccc2N(c2ccccc2)S1(=O)=O (stereo not drawn)
(2) CC(C)NCCCC1Oc2ccccc2N(c2ccccc2)S1(=O)=O (stereo not drawn)
Compare 1 and 2 by numeric inhibition at 6 µM and name the larger one. Return value: the label identifying the chosen record. 1
(1: 63%, 2: 15%)

(1) O=S1(=O)C(CCCNC2CCCCC2)Oc2ccccc2N1c1ccccc1 (stereo not drawn)
(2) CC1CN(CCC2Oc3ccccc3N(c3ccccc3)S2(=O)=O)CC(C)N1 (stereo not drawn) [Example 79, hydrochloride]
Out of 1 and 2 , name the one with the higher inhibition at 6 µM. Select an item and report its label. 1
(1: 67%, 2: 21%)

---

- Tested on: human hNET (Homo sapiens)
- Construct: expressed in transfected cells; host or cells: MDCK-Net6 (MDCK cells stably transfected with hNET)
- Assay info: Functional norepinephrine reuptake assay, Procedure B (6,000 cells/well)
- Type: cell-based
- Measurement parameters: MDCK-Net6 cells, 6,000 cells/well; Conc 6000 nM (6 μM); read-out: Procedure B hNET uptake (% inhibition)
Counter-ions that a name gives are not always drawn.
Metric name: inhibition at 6 µM (%)

{"Compound": "O=S1(=O)C(CCCNC2CCCC2)Oc2ccccc2N1c1ccccc1 (stereo not drawn) [Example 42]", "inhibition at 6 µM [%]": 48}
{"Compound": "CCN(CCO)CCCC1Oc2ccccc2N(c2ccccc2)S1(=O)=O (stereo not drawn) [Example 83, hydrochloride]", "inhibition at 6 µM [%]": 41}
{"Compound": "CCN(CC)CCCC1Oc2ccccc2N(c2ccccc2)S1(=O)=O (stereo not drawn) [Example 82, hydrochloride]", "inhibition at 6 µM [%]": 47}
